ASSAYED TARGET: hNav1.7 (Homo sapiens (Human))
Sequence (Q15858 other isoform, or with tags, fused parts or gaps): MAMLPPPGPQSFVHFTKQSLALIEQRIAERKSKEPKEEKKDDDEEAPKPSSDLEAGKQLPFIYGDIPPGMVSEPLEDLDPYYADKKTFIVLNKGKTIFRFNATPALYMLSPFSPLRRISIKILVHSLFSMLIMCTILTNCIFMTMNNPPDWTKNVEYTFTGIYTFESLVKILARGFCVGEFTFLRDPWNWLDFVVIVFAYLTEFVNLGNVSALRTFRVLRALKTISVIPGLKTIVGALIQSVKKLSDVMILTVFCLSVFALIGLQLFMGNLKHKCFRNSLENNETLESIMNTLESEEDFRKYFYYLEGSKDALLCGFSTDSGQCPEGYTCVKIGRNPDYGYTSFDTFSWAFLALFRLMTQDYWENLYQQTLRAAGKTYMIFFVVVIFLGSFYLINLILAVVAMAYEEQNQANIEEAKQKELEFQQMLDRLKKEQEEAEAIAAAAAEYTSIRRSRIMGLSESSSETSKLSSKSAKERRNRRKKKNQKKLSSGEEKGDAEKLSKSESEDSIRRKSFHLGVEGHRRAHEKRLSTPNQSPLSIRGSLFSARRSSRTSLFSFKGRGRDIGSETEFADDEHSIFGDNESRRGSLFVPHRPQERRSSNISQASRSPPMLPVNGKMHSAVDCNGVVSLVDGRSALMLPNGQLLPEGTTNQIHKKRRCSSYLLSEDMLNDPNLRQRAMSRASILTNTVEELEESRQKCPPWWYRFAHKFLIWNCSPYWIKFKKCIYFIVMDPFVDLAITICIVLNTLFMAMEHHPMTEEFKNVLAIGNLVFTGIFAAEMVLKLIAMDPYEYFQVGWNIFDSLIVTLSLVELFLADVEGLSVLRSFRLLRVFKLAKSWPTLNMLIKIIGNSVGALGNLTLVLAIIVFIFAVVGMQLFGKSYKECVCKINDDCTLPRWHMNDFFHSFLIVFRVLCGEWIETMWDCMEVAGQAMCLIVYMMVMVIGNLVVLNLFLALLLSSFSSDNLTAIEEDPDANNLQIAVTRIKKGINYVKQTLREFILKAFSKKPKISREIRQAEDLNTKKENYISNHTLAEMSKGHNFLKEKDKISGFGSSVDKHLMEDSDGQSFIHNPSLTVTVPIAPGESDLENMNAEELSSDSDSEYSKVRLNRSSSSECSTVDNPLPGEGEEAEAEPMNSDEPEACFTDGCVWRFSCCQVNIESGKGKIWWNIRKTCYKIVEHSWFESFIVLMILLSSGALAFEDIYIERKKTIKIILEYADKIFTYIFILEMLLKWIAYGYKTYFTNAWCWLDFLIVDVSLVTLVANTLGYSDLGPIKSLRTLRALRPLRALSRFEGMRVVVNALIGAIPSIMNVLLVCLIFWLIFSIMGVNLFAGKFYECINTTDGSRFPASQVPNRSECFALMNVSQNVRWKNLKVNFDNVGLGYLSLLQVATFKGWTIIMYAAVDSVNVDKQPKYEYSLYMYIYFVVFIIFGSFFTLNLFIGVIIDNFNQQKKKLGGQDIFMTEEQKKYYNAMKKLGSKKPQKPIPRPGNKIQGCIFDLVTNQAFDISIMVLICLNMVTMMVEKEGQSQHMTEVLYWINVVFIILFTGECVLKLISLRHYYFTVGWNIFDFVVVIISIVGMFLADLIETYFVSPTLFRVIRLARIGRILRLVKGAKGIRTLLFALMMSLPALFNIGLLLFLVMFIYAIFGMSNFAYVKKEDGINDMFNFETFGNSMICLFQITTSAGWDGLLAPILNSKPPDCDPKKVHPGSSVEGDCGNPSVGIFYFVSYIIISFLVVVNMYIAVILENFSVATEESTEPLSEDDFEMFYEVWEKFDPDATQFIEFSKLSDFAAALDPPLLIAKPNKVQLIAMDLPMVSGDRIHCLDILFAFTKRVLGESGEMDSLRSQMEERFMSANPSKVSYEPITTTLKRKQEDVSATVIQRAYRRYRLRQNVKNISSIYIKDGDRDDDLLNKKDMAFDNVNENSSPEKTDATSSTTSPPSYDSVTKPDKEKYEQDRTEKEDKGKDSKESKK
Sequence (Q07699 19-218 partner): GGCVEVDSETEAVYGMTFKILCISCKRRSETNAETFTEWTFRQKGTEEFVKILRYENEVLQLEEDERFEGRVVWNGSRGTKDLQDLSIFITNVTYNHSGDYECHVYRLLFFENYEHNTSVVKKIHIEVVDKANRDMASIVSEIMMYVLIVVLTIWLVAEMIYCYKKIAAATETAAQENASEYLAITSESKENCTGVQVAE
PROTOCOL NOTES: Tritiated sulfonamide competitive binding to membranes from cells expressing hNav1.7 and the β1 subunit;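 note: Filter-bound radioactivity counted by liquid scintillation, nonspecific binding defined with excess unlabelled ligand, IC50 fitted to percent inhibition of specific binding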
ASSAY CONTEXT: read-out: Ligand Binding Assay; 100 pM [3H]compound, membranes with hNav1.7 and β1 subunit, 18 h, room temperature
Where a name gives a salt, the structure may show the parent alone.
Field: pIC50. Provide a value for each of the compounds that follow.
Would you please state pIC50, meaning minus log10 of the concentration in mol/L, as a bare number?

Entry under review: CC1(COc2cc(F)c(C(=O)NS(=O)(=O)C3CC3)cc2C2CC2)CN(c2ccc(C(F)(F)F)cn2)C1 [Example 488, trifluoroacetic acid salt] . Reported pIC50?
8.04

What would you report for "CS(=O)(=O)NC(=O)c1cc(C2CC2)c(OCC2CN(c3cc(C(F)(F)F)c(Cl)cn3)C2)cc1F" ?
7.57

What would you report for CC(C)(C)c1ccc(CN2CCC[C@@H](Oc3cc(F)c(C(=O)NS(C)(=O)=O)cc3C3CC3)C2)cc1 [Example 425, trifluoroacetic acid salt] ?
8.54

What would you report for Cc1cc(F)ccc1CN1CCC[C@@H](Oc2cc(F)c(C(=O)NS(C)(=O)=O)cc2C2CC2)C1 [Example 431, trifluoroacetic acid salt] ?
8.49

What would you report for CS(=O)(=O)NC(=O)c1cc(C2CC2)c(OCC2CCN(C(c3ccc(F)cc3)c3ccc(F)cc3)CC2)cc1F [Example 418, trifluoroacetic acid salt] ?
8.49

What would you report for CCS(=O)(=O)NC(=O)c1cc(C2CC2)c(OCC2CCN([C@](C)(COC)c3cc(Cl)cc(Cl)c3)CC2)cc1F (single isomer, unassigned) ?
8.44

What would you report for "O=C(NS(=O)(=O)CC1CC1)c1cc(C2CC2)c(OCC2CN(C(c3ccccc3)c3ccccc3)C2)cc1F" ?
8.33

What would you report for "O=C(NS(=O)(=O)N1CCC1)c1cc(C2CC2)c(OC[C@@H]2CCCN(Cc3ccc(F)cc3Cl)C2)cc1F" ?
7.68

What would you report for CS(=O)(=O)NC(=O)c1cc(C2CC2)c(OCC2CCN(Cc3cc(F)c(F)c(Cl)c3)CC2)cc1F [Example 456, trifluoroacetic acid salt] ?
8.03

What would you report for CS(=O)(=O)NC(=O)c1cc(C2CC2)c(OC[C@@H]2C[C@H]3CC[C@@H](C2)N3Cc2cc(C(F)(F)F)ccc2Cl)cc1F [Example 399, trifluoroacetic acid salt] ?
8.34

What would you report for COC[C@H](c1cc(Cl)cc(Cl)c1)N1CCC(COc2cc(F)c(C(=O)NS(C)(=O)=O)cc2C2CC2)CC1 (single isomer, unassigned) ?
8.44

What would you report for N#Cc1cc(C(=O)NS(=O)(=O)C2CC2)c(F)cc1OCC1CCN(Cc2cc(Cl)cc(OC(F)(F)F)c2)CC1 [Example 409, trifluoroacetic acid salt] ?
7.27

What would you report for O=C(NS(=O)(=O)C1CC1)c1cc(C2CC2)c(CN2CCC(OCc3ccc(F)cc3Cl)CC2)cc1F [Example 480, trifluoroacetic acid salt] ?
7.66

What would you report for "CS(=O)(=O)NC(=O)c1cc(C2CC2)c(OCC2CCN(Cc3ccc(OC(F)(F)F)cc3)CC2)cc1F" ?
7.81

What would you report for "CC1(COc2cc(F)c(C(=O)NS(C)(=O)=O)cc2C2CC2)CCN(Cc2ccc(F)cc2C(F)(F)F)CC1" ?
8.46

What would you report for CS(=O)(=O)NC(=O)c1cc(C2CC2)c(OC[C@@H]2C[C@H]3CC[C@@H](C2)N3Cc2cc(C(F)(F)F)cc(Cl)c2F)cc1F [Example 398, trifluoroacetic acid salt] ?
8.29

What would you report for C[C@H](c1ccc(Cl)c(C2CC2)n1)N1CCC[C@@H](Oc2cc(F)c(C(=O)NS(C)(=O)=O)cc2C2CC2)C1 (single isomer, unassigned) ?
8.57

What would you report for COc1cc(OC(F)(F)F)ccc1CN1CCC[C@@H](Oc2cc(F)c(C(=O)NS(C)(=O)=O)cc2C2CC2)C1 [Example 438, trifluoroacetic acid salt] ?
8.02

What would you report for "COc1ccc(CN2CCC(COc3cc(F)c(C(=O)NS(C)(=O)=O)cc3C3CC3)CC2)cc1Cl" ?
7.33

What would you report for "O=C(NS(=O)(=O)N1CCC1)c1cc(C2CC2)c(OCC2CCN(c3ccccc3)CC2)cc1F" ?
7.96

What would you report for CS(=O)(=O)NC(=O)c1cc(C2CC2)c(OCC2CCN(C(c3ccccc3Cl)c3ccccc3Cl)CC2)cc1F [Example 361, trifluoroacetic acid salt] ?
8.70

What would you report for C[C@H](c1cc(Cl)cc(Cl)c1)N1CCC(COc2cc(F)c(C(=O)NS(=O)(=O)N3CCC3)cc2C2CC2)CC1 (single isomer, unassigned) ?
8.43

What would you report for "CS(=O)(=O)NC(=O)c1cc(C2CC2)c(OCC2CCN(CC3(C(F)(F)F)CC3)CC2)cc1F" ?
7.30

What would you report for "CS(=O)(=O)NC(=O)c1cc(C2CC2)c(OCC2CN([C@H](c3ccccc3)c3ccc(OC(F)(F)F)cc3)C2)cc1F" ?
7.95
